# test-description: self-splicing fitness, log relative to wild type (ln ratio); higher = more splicing; Tetrahymena group I intron in knt gene, E. coli kanamycin selection, DiMSum; sequences stand for … in CUCUCU…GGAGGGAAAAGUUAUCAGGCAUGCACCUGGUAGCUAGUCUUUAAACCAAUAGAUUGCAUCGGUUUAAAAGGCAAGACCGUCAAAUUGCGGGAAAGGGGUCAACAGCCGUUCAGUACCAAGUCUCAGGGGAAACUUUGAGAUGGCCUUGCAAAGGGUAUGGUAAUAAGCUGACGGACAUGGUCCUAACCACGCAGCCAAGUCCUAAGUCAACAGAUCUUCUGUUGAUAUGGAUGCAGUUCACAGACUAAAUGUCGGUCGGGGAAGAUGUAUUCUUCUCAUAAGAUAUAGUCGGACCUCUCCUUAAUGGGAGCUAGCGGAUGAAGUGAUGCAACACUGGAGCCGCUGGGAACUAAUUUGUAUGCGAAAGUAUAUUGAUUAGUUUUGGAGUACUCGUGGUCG;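 further: selection with 25 µg/mL kanamycin versus none on LB agar overnight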
# assay-context: 30 °C

| macromolecule-sequence | self-splicing fitness (ln) |
| --- | --- |
| AAUUAGCAAUAUUACGAUAC | -1.24 |
| AUUUAGCAAUAUUACGCAGC | -2.71 |
| UGCUAGCAAUAUUACGGUGC | -3.92 |
| GAGUAGCAAUAUUACGAACU | -0.979 |
| UUUGAGCAAUAUUACGAUUG | -3.75 |
| ACUCAGCAAUAUUACGGCCA | -1.28 |
| GUCUAGCAAUAUUACGUUGA | -1.64 |
| GCAGAGCAAUAUUACGCAGA | -2.78 |
| UCCUAGCAAUAUUACGUGUG | -2.41 |
| CACGAGCAAUAUUACGUUGA | -3.06 |
| GCCAAGCAAUAUUACGCGAG | -2.43 |
| GCCAAGCAAUAUUACGUGCG | -2 |
| CCCUAGCAAUAUUACGCAAA | -3.13 |
| UUCAAGCAAUAUUACGCACG | -1.11 |
| AAUGAGCAAUAUUACGAGUA | -3.91 |
| AACCAGCAAUAUUACGACGC | -0.537 |
